- measured target: Potassium channel subfamily K member 9 (Homo sapiens) (UniProt Q9NPC2)
- Sequence (Q9NPC2 whole entry, looked up): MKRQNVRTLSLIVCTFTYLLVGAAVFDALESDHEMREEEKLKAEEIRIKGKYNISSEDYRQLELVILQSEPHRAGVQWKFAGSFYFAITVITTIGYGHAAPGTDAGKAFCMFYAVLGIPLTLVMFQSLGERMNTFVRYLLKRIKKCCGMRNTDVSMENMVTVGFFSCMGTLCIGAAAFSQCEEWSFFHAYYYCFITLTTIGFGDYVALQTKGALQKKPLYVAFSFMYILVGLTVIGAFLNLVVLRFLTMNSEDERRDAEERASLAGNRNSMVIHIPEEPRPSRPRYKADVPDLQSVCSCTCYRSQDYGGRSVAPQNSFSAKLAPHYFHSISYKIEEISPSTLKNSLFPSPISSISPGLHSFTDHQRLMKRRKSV
- protocol description: blockers of human TASK-3 (KCNK9) channel – HEK293 cells, thallium flux, primary screen (AID 488922)
- details: HEK293 KCNK9, FluxOR thallium flux fluorescence, at 10 µM
The whole screen tested about 310,000 compounds, of which about 3,800 (1.2%) were called active.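 The calls were made as follows: active = ratio B-score over 3 SD below the library mean, with starting fluorescence within 5 SD of its mean; inactive = the rest, inconclusive results apart.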 Many of the other results were omitted from the sample, so actives are more common in it than they were.
Respond with a class label; see 1 (yes) (active), 0 (no) (inactive)

Example entries and their recorded answers appear below.
CCc1ccccc1NC(=S)Nc1cc(OC)c(NC(=O)C(C)C)cc1OC: 0 (no)
O=C(Nn1cnnc1)c1cc(Cl)ccc1Cl: 0 (no)
COc1ccc(C)cc1NC(=O)C(Sc1ccccc1)c1ccccc1 (stereo unspecified): 1 (yes)
CCc1ccccc1NC(=O)CCOc1ccccc1: 0 (no)
NC(=O)c1sc2nc3c(c(-c4ccccc4)c2c1N)CCC3: 0 (no)

## Input Tell me the assay call for Cc1cccc(NC(=O)c2sc3nc4c(c(-c5ccco5)c3c2N)CCC4)c1 please.
## Output 1 (yes)
